Test: chemical genetic growth profiling, strain panel (AID 1159580);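 further: tested at 20 µM; growth read once vehicle control cultures reached saturation at 30 °C; 1 = growth at the plate median or of vehicle wells; lower values mean less growth of the strain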
Settings: S. cerevisiae deletion strains, growth OD, locus YKL190W, strain CNB1, stronger effect = lower value
Hit rate of the full screen: of about 5,500 compounds, about 2,000 (36%) were called active. About 18% were inconclusive and are not listed. The list shows a part of the results.
experimental_endpoint: normalized growth

CN1C(C(=O)Nc2ccccn2)=C(O)c2ccccc2S1(=O)=O :: 1.01 (inactive)
NS(=O)(=O)c1cc2c(cc1Cl)NC(C(Cl)Cl)NS2(=O)=O (configuration not stated) :: 1.02 (inactive)
N#CCC(=O)Nc1ccccn1 :: 1 (inactive)
CCOC(=O)Nc1ccsc1C(=O)OC :: 1 (inactive)
NC(=O)c1cccc(N)c1 :: 1.02 (inactive)
COc1cc2occ(-c3ccccc3)c(=O)c2c(OC)c1C :: 0.961 (inactive)
Cc1cc(NC(=O)C2=C(O)c3ccccc3S(=O)(=O)N2C)no1 :: 0.976 (inactive)
